Activity towards hGHQ141N (RFU/sec/µg), dansyl-cadaverine incorporation reference
# TARGET OR TEST SYSTEM: hGHQ141N, P01241
# Sequence (P01241 27-217 Q167N): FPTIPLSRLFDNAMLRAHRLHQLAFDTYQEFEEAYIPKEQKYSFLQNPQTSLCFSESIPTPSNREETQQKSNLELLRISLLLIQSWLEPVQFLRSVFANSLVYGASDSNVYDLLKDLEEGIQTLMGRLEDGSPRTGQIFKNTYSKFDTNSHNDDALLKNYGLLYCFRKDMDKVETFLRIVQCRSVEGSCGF
PROPERTY: Activity towards hGHQ141N (RFU/sec/µg), dansyl-cadaverine incorporation

| PROTEIN | RESULT UNITS | ASSAY VALUE |
| --- | --- | --- |
| Mature mTGase from S. ladakanum (protein) DSDERVTPPAEPLDRMPDPYRPSYGRAETIVNNYIRKWQQVYSHRDGRKQQMTEEQREWLSYGCVGVTWVNSGQYPTNRLAFAFFDEDKYKNELKNGRPRSGETRAEFEGRVAKDSFDEAKGFQRARDVASVMNKALENAHDEGAYLDNLKKELANGNDALRNEDARSPFYSALRNTPSFKDRNGGNHDPSKMKAVIYSKHFWSGQDRSGSSDKRKYGDPEAFRPDRGTGLVDMSRDRNIPRSPTSPGESFVNFDYGWFGAQTEADADKTVWTHGNHYHAPNGSLGAMHVYESKFRNWSDGYSDFDRGAYVVTFVPKSWNTAPDKVKQGWP | RFU/sec/µg | 0.63 |
| GlyPro-mTGase from S. mobaraensis (protein) GPDSDDRVTPPAEPLDRMPDPYRPSYGRAETVVNNYIRKWQQVYSHRDGRKQQMTEEQREWLSYGCVGVTWVNSGQYPTNRLAFASFDEDRFKNELKNGRPRSGETRAEFEGRVAKESFDEEKGFQRAREVASVMNRALENAHDESAYLDNLKKELANGNDALRNEDARSPFYSALRNTPSFKERNGGNHDPSRMKAVIYSKHFWSGQDRSSSADKRKYGDPDAFRPAPGTGLVDMSRDRNIPRSPTSPGEGFVNFDYGWFGAQTEADADKTVWTHGNHYHAPNGSLGAMHVYESKFRNWSEGYSDFDRGAYVITFIPKSWNTAPDKVKQGWP | RFU/sec/µg | 1.13 |

Source: patent US20100087371
